- Study system: Bcl-xL, Q07817
- Sequence (Q07817 1-209): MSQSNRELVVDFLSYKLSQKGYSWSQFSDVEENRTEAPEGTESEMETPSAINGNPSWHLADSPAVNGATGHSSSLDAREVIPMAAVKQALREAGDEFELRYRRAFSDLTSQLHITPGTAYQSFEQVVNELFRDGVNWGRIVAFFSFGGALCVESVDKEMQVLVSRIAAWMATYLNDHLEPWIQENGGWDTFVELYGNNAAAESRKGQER
- Experiment description: peptide SPOT array, c-Myc-tagged receptor at 1 uM or 100 nM, anti-c-Myc-Cy3
Test readout: SPOT signal as a fraction of Bim BH3's signal on the same receptor and array
Simply state the number, no unit and no words.

Query block: Name the recorded SPOT signal as a fraction of Bim BH3's signal on the same receptor and array for QRKHEGFERDLAALLDKVNSLGETAE [SPTAN1] .
Result block: 0.1

Query block: I would be grateful if you could share the reported SPOT signal as a fraction of Bim BH3's signal on the same receptor and array for DLLGMVVVDELHMLLDSHRGYLLELL [POLQ] .
Result block: 0.02

Query block: Find the recorded SPOT signal as a fraction of Bim BH3's signal on the same receptor and array belonging to KKCQDMIMTELTNALDDVVVFYNDKA [ITPR3] and report it.
Result block: 0.02

Query block: Give its SPOT signal as a fraction of Bim BH3's signal on the same receptor and array value. Item: QEQLLTLASILREDGKVFDEKVYYTA [HEBP2]
Result block: 0.03
